Just for reference, ChEMBL document CHEMBL3885861 is where these values come from.

Answer each item with its documented ALP.
Organism: Rattus norvegicus
Assay: Open TG-GATES - Regimen: Daily Repeat
Format: toxicity, organism-based, Sprague-Dawley
Design: regimen Daily Repeat, gender Male, age 6 weeks
Conditions: in vivo, po, 0 mg/kg, 72 h, tissue Plasma, route gavage, dose level Control, time 3 day
Report the figure in IU/L without appending any unit label.

Task: Entry under review: Cc1cccc(Nc2cc(Cl)nc(SCC(=O)O)n2)c1C [PIRINIXIC ACID] . Reported ALP?
Output: 1563.4

Task: // returns reported ALP for input O=C1CN(/N=C/c2ccc(-c3ccc([N+](=O)[O-])cc3)o2)C(O)=N1 [DANTROLENE]
Output: 842.8

Task: Item under review: Cn1cnc([N+](=O)[O-])c1Sc1ncnc2nc[nH]c12 [AZATHIOPRINE] . Reported ALP?
Output: 1684.4

Task: So what does the record say about ALP for O=C1NC(=O)C(c2ccccc2)(c2ccccc2)N1 [PHENYTOIN] ?
Output: 1688.4

Task: Name the recorded ALP for Cn1c(=O)c2c(ncn2C)n(C)c1=O [CAFFEINE] .
Output: 1435.4

Task: // returns reported ALP for input Cc1cnc(NC(=O)C2=C(O)c3ccccc3S(=O)(=O)N2C)s1 [MELOXICAM]
Output: 947

Task: For the compound COc1ccc(Cl)cc1C(=O)NCCc1ccc(S(=O)(=O)NC(=O)NC2CCCCC2)cc1 [GLYBURIDE] , what ALP is on record?
Output: 939.6

Task: Find the recorded ALP belonging to CS(=O)(=O)Nc1ccc([N+](=O)[O-])cc1Oc1ccccc1 [NIMESULIDE] and report it.
Output: 996

Task: ALP lookup needed for O=P1(N(CCCl)CCCl)NCCCO1 (stereo unspecified) [CYCLOPHOSPHAMIDE ANHYDROUS] , thanks.
Output: 1749.2

Task: Record request: ALP value, item C=CCO [ALLYL ALCOHOL]
Output: 952.4

Task: Would you mind telling me what ALP value was observed for COc1ccc(O)c(C(C)(C)C)c1.COc1ccc(O)cc1C(C)(C)C [BUTYLATED HYDROXYANISOLE] ?
Output: 1690.8

* * *

Species on record: Rattus norvegicus
Assay: Open TG-GATES - Regimen: Daily Repeat
Type: toxicity, organism-based, Sprague-Dawley
Parameters: regimen Daily Repeat, gender Male, age 6 weeks
Details: in vivo, po, 0 mg/kg, […], tissue Plasma, route gavage, dose level Control, time 28 day
So I've got a bunch of compounds here, and I need their Ca values.
Please state the figure in mg/dL; there is no need to write the unit.

Task: Report Ca for O=P1(N(CCCl)CCCl)NCCCO1 (centres undefined) [CYCLOPHOSPHAMIDE ANHYDROUS] please.
Output: 10.3

Task: May I ask what Ca has been recorded for COc1ccc(Cl)cc1C(=O)NCCc1ccc(S(=O)(=O)NC(=O)NC2CCCCC2)cc1 [GLYBURIDE] ?
Output: 10.5

Task: Which Ca value is on record for CS(=O)(=O)Nc1ccc([N+](=O)[O-])cc1Oc1ccccc1 [NIMESULIDE] ?
Output: 10.5

Task: Item `Cn1c(=O)c2c(ncn2C)n(C)c1=O` has what recorded Ca?
Output: 10.4

Task: Which Ca reading was recorded for the compound `C=CCO` ?
Output: 10.5

Task: Data request, read-out Ca, for `O=C1CN(/N=C/c2ccc(-c3ccc([N+](=O)[O-])cc3)o2)C(O)=N1`
Output: 10.3

Task: Which Ca reading was recorded for the compound `Cn1cnc([N+](=O)[O-])c1Sc1ncnc2nc[nH]c12` ?
Output: 10.3

Task: # get_value(readout='Ca', item= `Cc1cccc(Nc2cc(Cl)nc(SCC(=O)O)n2)c1C` )
Output: 10.7

Task: Consider the compound COc1ccc(O)c(C(C)(C)C)c1.COc1ccc(O)cc1C(C)(C)C [BUTYLATED HYDROXYANISOLE] and give its measured Ca.
Output: 10.8
